- System Name: T1, factor VIIIa A1/A3C1C2 dimer, Glu113Ala (human, UniProt P00451 20-391; P00451 1709-2351)
- T1 chain 1: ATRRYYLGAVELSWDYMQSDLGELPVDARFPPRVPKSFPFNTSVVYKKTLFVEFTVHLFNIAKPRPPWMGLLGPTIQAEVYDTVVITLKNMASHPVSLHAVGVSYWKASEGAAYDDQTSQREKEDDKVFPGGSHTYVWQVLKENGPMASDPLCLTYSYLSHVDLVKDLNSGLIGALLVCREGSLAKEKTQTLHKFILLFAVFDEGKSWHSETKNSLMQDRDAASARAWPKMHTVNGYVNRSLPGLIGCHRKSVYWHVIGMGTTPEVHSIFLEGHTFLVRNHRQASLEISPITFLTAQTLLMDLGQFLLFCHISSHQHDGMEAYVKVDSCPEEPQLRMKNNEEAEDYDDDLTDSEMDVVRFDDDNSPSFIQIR
- T1 chain 2: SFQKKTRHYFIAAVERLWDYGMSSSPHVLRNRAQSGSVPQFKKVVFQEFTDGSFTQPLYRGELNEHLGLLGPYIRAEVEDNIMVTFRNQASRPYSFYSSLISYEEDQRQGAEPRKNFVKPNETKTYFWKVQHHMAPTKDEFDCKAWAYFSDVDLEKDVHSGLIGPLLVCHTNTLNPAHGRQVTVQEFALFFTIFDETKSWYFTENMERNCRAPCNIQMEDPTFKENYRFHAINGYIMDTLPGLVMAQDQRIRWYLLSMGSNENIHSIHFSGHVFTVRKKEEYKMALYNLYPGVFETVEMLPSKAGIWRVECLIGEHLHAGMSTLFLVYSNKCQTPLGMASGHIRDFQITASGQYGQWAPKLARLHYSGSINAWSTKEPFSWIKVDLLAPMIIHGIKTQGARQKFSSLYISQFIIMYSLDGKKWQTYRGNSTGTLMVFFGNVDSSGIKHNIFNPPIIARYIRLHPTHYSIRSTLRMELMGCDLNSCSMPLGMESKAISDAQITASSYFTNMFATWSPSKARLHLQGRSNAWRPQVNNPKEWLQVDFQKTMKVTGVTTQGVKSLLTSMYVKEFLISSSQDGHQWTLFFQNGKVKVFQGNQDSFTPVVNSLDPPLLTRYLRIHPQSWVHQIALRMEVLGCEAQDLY
- Experiment Description: cell-based or functional assay
Property Name: Decay rate, Factor VIIIa (1.5 nM factor VIIIa, factor IXa absent)
Kindly write the number and append the unit.

Provide measured Decay rate, Factor VIIIa (1.5 nM factor VIIIa, factor IXa absent) value, entry: factor VIIIa A2 subunit, Asp519Val (other) SVAKKHPKTWVHYIAAEEEDWDYAPLVLAPDDRSYKSQYLNNGPQRIGRKYKKVRFMAYTDETFKTREAIQHESGILGPLLYGEVGDTLLIIFKNQASRPYNIYPHGITDVRPLYSRRLPKGVKHLKDFPILPGEIFKYKWTVTVEVGPTKSDPRCLTRYYSSFVNMERDLASGLIGPLLICYKESVDQRGNQIMSDKRNVILFSVFDENRSWYLTENIQRFLPNPAGVQLEDPEFQASNIMHSINGYVFDSLQLSVCLHEVAYWYILSIGAQTDFLSVFFSGYTFKHKMVYEDTLTLFPFSGETVFMSMENPGLWILGCHNSDFRNRGMTALLKVSSCDKNTGDYYEDSYEDISAYLLSKNNAIEPR
0.0495 min⁻¹

Provide measured Decay rate, Factor VIIIa (1.5 nM factor VIIIa, factor IXa absent) value, entry: factor VIIIa A2 subunit, Asp519Ala (other) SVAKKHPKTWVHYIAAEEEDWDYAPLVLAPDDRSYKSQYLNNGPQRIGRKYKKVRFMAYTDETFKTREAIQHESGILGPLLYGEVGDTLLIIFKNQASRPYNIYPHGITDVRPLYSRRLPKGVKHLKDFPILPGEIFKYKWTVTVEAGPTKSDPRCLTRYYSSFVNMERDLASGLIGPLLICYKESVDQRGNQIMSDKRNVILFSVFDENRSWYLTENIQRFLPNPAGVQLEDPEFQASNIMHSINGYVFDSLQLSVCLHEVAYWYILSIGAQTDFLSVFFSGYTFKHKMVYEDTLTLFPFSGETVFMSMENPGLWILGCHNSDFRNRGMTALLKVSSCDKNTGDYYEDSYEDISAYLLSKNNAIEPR
0.0748 min⁻¹

Provide measured Decay rate, Factor VIIIa (1.5 nM factor VIIIa, factor IXa absent) value, entry: factor VIIIa A2 subunit, Glu665Val (other) SVAKKHPKTWVHYIAAEEEDWDYAPLVLAPDDRSYKSQYLNNGPQRIGRKYKKVRFMAYTDETFKTREAIQHESGILGPLLYGEVGDTLLIIFKNQASRPYNIYPHGITDVRPLYSRRLPKGVKHLKDFPILPGEIFKYKWTVTVEDGPTKSDPRCLTRYYSSFVNMERDLASGLIGPLLICYKESVDQRGNQIMSDKRNVILFSVFDENRSWYLTENIQRFLPNPAGVQLEDPEFQASNIMHSINGYVFDSLQLSVCLHEVAYWYILSIGAQTDFLSVFFSGYTFKHKMVYVDTLTLFPFSGETVFMSMENPGLWILGCHNSDFRNRGMTALLKVSSCDKNTGDYYEDSYEDISAYLLSKNNAIEPR
0.0333 min⁻¹

Provide measured Decay rate, Factor VIIIa (1.5 nM factor VIIIa, factor IXa absent) value, entry: factor VIIIa A2 subunit, Glu665Ala (other) SVAKKHPKTWVHYIAAEEEDWDYAPLVLAPDDRSYKSQYLNNGPQRIGRKYKKVRFMAYTDETFKTREAIQHESGILGPLLYGEVGDTLLIIFKNQASRPYNIYPHGITDVRPLYSRRLPKGVKHLKDFPILPGEIFKYKWTVTVEDGPTKSDPRCLTRYYSSFVNMERDLASGLIGPLLICYKESVDQRGNQIMSDKRNVILFSVFDENRSWYLTENIQRFLPNPAGVQLEDPEFQASNIMHSINGYVFDSLQLSVCLHEVAYWYILSIGAQTDFLSVFFSGYTFKHKMVYADTLTLFPFSGETVFMSMENPGLWILGCHNSDFRNRGMTALLKVSSCDKNTGDYYEDSYEDISAYLLSKNNAIEPR
0.0754 min⁻¹

Every entry's value here was drawn from patent US20090118184A1.
